- Tested on: NCI-H460 lung
- ASSAY DETAILS: NCI-60 one-dose screen, 48 h
- TEST PARAMETERS: 10 µM unless noted
The panel holds about 83,000 compounds, 20% with a hit somewhere; the sample as a whole holds those more often. The source made the active and inactive calls. How the source made its calls: active means growth percent below 10; inactive means the rest.
Valid outcomes are listed here; reply with one: active, inactive

> print(dat)
                                   molecule  class.name
1  Cc1cn(-c2nc3c(c(NCc4ccccc4)n2)COCC3)c2cccc(C(N)=O)c12    inactive

Task: Dear colleague, could you share the recorded outcome for Cc1ccc2c(C3C(C#N)=C(N)Oc4cc5ccccc5cc43)cc(=O)oc2c1 (stereo not given) when you have a moment?
Result: inactive

Task: Dear colleague, could you share the recorded outcome for `O=C(O)c1cc2ccccc2cc1Nc1ccccc1` when you have a moment?
Result: inactive

Task: Dear colleague, could you share the recorded outcome for `CC1(C)N=C(N)N=C(N)N1c1ccc(F)c(C(F)(F)F)c1` when you have a moment?
Result: inactive

Task: Dear colleague, could you share the recorded outcome for CCOC(=O)C(C)(CSSCC(C)(NC(=O)c1ccc2ccccc2c1)C(=O)OCC)NC(=O)c1ccc2ccccc2c1 (stereo not given) when you have a moment?
Result: inactive

Task: Dear colleague, could you share the recorded outcome for `NC(=S)NNC1CCCCC1` when you have a moment?
Result: inactive

Task: Dear colleague, could you share the recorded outcome for `O=C(Nc1ccc(Cl)c(Cl)c1)Nc1ccc(Cl)c([N+](=O)[O-])c1` when you have a moment?
Result: active

Task: Dear colleague, could you share the recorded outcome for `Cc1cc(-c2ccccc2)nc2ccccc12` when you have a moment?
Result: inactive

Task: Dear colleague, could you share the recorded outcome for `O=C(Nc1ccc(-n2cc(-c3ccncc3)c(-c3ccc(O)c(Cl)c3)n2)cc1)c1cc(Cl)cc(Cl)c1` when you have a moment?
Result: inactive

Task: Dear colleague, could you share the recorded outcome for `COc1ccc(Cl)cc1NC(=O)c1cc2c([nH]1)-c1nc(N)sc1CCC2` when you have a moment?
Result: inactive

Data credit: PubChem BioAssay (NCI)
